The molecules below each have a reported pKi tested on Prothrombin (Homo sapiens, UniProt P00734); the values come from various publications.
Numbers only, as −log10 of the molar value.

# map each molecule to its pKi
1. N=C(N)c1cccc(Oc2nc(Oc3cccc(C(=N)N)c3)c(F)cc2F)c1
2. CN(CC(=O)N[C@@H](CCCCN)B(O)O)C(=O)c1ccccc1S(=O)(=O)c1ccccc1
3. COC(=N)NS(=O)(=O)c1ccc([N+](=O)[O-])cc1
4. Cc1nc(-c2ccccc2)ncc1C(=O)N[C@@H](CCCCN)B1O[C@@H]2CC3CC(C3(C)C)[C@]2(C)O1 (stereo not given in full)

Response line:
4.43
7.01
6.72
6.39

---

Dear all, I have gathered published log10 Ki values for Prothrombin (Homo sapiens, UniProt P00734); the list follows.
Hi team, quick reminder: these entries are log10 of Ki (µM).

Would you please look over these solved cases?
INSERT INTO measurements (smilesrecord, measuredresult) VALUES
  ('Cl.N=C(N)c1cccc(N2CCCCN(C3CCN(S(=O)(=O)c4cccs4)CC3)C2=O)c1', 0.18),
  ('Nc1cc(-n2nnnc2C(=O)Nc2ccc(-c3ccccc3S(N)(=O)=O)cc2)ccc1Cl', 0.20),
  ('COc1ccc(N(C)C)cc1Oc1nc(Oc2cccc(C(=N)N)c2)c(F)c(C)c1F', 0.34),
  ('Cc1cnc(NCCc2ccccc2)c(=O)n1CC(=O)NCc1ccncc1', 1.23);

# next compound below
Prompt line: Quickly give me recorded log10 Ki for Nc1nc(CNC(=O)[C@@H]2CCCN2C(=O)[C@H](N)C(c2ccccc2)c2ccccc2)cs1
Response line: -0.46

---

Compiled literature pKi, tested on UniProtKB P00734.
pKi: −log10 of the molar value.
Label scheme for pKi: lower than 7 is Not met, 7 and above is Met.

INSERT INTO results (compound, discretelabel) VALUES
  ('Cc1cc(-c2ccccc2S(=O)(=O)NC(C)(C)C)ccc1C(=O)N[C@@H](CCCN=C(N)N)B1O[C@@H]2CC3CC(C3(C)C)[C@]2(C)O1 (some centres not stated)', 'Met'),
  ('CN1CCN(CCCN(Cc2ccc3ccc(C(=N)N)cc3c2)C(=O)c2cccc3ccccc23)CC1', 'Not met'),
  ('N=C(N)c1cccc(-c2ncsc2C(=O)Nc2ccc(-c3ccccc3S(N)(=O)=O)cc2)c1.O=C(O)C(F)(F)F', 'Not met');

Prompt line: Item CC(=N)N1CCC(N(CCCC(=O)O)c2ccc3c(c2)nc(C)n3Cc2ccc3ccc(C(=N)N)cc3c2)CC1 with pKi of 7 or above?
Response line: Not met

---

Ki for Prothrombin (Homo sapiens, UniProt P00734) - collated from the literature.
Bucketed by reported Ki, buckets being low = under 0.04 µM, mid = from 0.04 µM up to 3 µM, high = 3 µM and over

Reference set, count: 5
INSERT INTO assay_data (compound, testedsystem, discretelabel) VALUES
  ('N=C(N)c1cccc(CN2CC[C@H](NS(=O)(=O)c3ccc(-c4ccccn4)s3)C2=O)c1', 'Prothrombin (Homo sapiens, UniProt P00734)', 'high'),
  ('COc1ccc2ccc(S(=O)(=O)N[C@H]3CCN(Cc4cc(C(=N)N)ccc4N)C3=O)cc2c1', 'Prothrombin (Homo sapiens, UniProt P00734)', 'mid'),
  ('NCC(=O)N1CCC[C@H]1C(=O)NCc1cccc(Cl)c1', 'Prothrombin (Homo sapiens, UniProt P00734)', 'high'),
  ('COC(=O)[C@H](Cc1cccc(C(=N)N)c1)[C@@H](C)NC(=O)c1ccc(-c2ccc[n+]([O-])c2)cc1', 'Prothrombin (Homo sapiens, UniProt P00734)', 'high'),
  ('CCOc1cc(C(Nc2ccc3cnccc3c2)C(=O)NS(=O)(=O)c2cccc(S(N)(=O)=O)c2)ccc1OC(C)C (centres undefined)', 'Prothrombin (Homo sapiens, UniProt P00734)', 'high');

Prompt line: Consider C[C@]12C[C@@H](Cc3ccc4nc(C(F)(F)F)ccc4c3)CC(=O)N1[C@H](C(=O)N[C@@H](CCCN=C(N)N)C(=O)c1nccs1)CS2 . To which Ki class does it belong?
Response line: low

Prompt line: Class (by measured Ki) for CN(CCC1CCNCC1)C(=O)N1CCN(C(=O)O[C@H]2CCC[C@@H](OC(=O)N3CCN(C(=O)NCc4ccc(NC(=N)N)cc4)CC3)CCC2)CC1
Response line: high

Prompt line: # bin label for CS(=O)(=O)N1CCN(C(=O)[C@H](Cc2ccc(C(N)NN)cc2)NS(=O)(=O)c2ccc3ccccc3c2)CC1 (some centres undefined)
Response line: low

Prompt line: Quick check: band for O=C(Cn1ccnc(NCC(F)(F)c2ccccn2)c1=O)NCc1ncccc1F
Response line: mid

Prompt line: Band of Cc1ccc(NC(=O)c2sc3ccccc3c2O)c(C(=O)Nc2ccc(Cl)cc2)c1 ?
Response line: high

Prompt line: Quick check: band for Cc1ccc(NS(=O)(=O)Cc2ccccc2)c(=O)n1CC(=O)NC1CCc2c(sc(=N)n2N)C1 (centres undefined)
Response line: mid

Prompt line: Hey, which category is CC1CNc2c(cccc2S(=O)(=O)N[C@@H](CCCNC(N)N)C(=O)N2CC[C@H](C)C[C@@H]2C(=O)O)C1 (stereo in doubt; 1b) in, do you know?
Response line: mid

Prompt line: Place this compound in its band: CCC1CCN(C(=O)[C@H](Cc2ccc(N)cc2)NS(=O)(=O)c2cnccc2N[C@@H](Cc2ccccc2)CN2CCOCC2)CC1
Response line: mid

Prompt line: Band for the recorded Ki of N=C(N)c1ccc2[nH]cc(CC(=O)Nc3ccc(-c4ccccc4S(N)(=O)=O)cc3F)c2c1 ?
Response line: mid

Prompt line: // return the class label for Cc1cc(-c2ccccc2S(N)(=O)=O)ccc1NC(=O)C1(Cn2cnnn2)CC(c2cccc(C(=N)N)c2)=NO1 (centres undefined)
Response line: mid

Prompt line: Which category fits this record: COCC1(C(=O)Nc2ncc(-c3ccccc3S(N)(=O)=O)cn2)CC(c2cccc(C(=N)N)c2)=NO1 (centres undefined)
Response line: high

Prompt line: Dear colleague, I would appreciate it if you could identify the bin for CC1CCN(C(=O)[C@H](CCCNC(N)N)NS(=O)(=O)c2cccc3c2NCC(C)C3)CC1 (some centres undefined) and reply at your convenience.
Response line: low

Prompt line: Exercise: read the entry N=C(N)c1ccc(CNc2ccc3ccn(Cc4ccc(C(=N)N)cc4)c3c2)cc1 and state which class it falls under.
Response line: high

Prompt line: Kindly state the category for this compound: CN(C)C(=N)c1ccc(/C=C2/CCCC/C(=C\c3ccc(C(=N)N(C)C)cc3)C2=O)cc1
Response line: high

Prompt line: Exercise: read the entry OCCNc1ccncc1 and state which class it falls under.
Response line: high

Prompt line: Determine which band this compound sits in: COc1ccc(-n2nc(C(N)=O)c3c2C(=O)N(c2ccc(C(C)(C)CO)cc2)CC3)cc1
Response line: mid

Prompt line: Which Ki band matches Cc1ncn(CC(=O)NCCN)c1Cn1c(C)ccc(NS(=O)(=O)Cc2ccccc2)c1=O ?
Response line: low
